System: NCI-H841 SCLC cell line
Assay: Antiproliferative activity, NCI-H841
Type: cell-based, human
Conditions: 3D assay; Calcein AM
Endpoint: IC50

Lab note: need IC50 for `COc1ccc(-c2c(-c3ccc(C#N)c(F)c3)nc(N3CCC(N)CC3)n(C)c2=O)cc1F` on NCI-H841 SCLC cell line, anyone have it?
> 500 µM
